Data origin, for the record: PubChem BioAssay (NCI)

Test system: LOX IMVI melanoma
PROCEDURE SUMMARY: NCI tumour cell line growth inhibition, 48 h
REPORTED PROPERTY: TGI

Known results for compounds:
O=C1c2ccccc2-c2c1c1ccccc1c(=O)n2CCN1CCOCC1 : > 100 µM
CCCCCCCCCCCCCCCCCCNc1ccn(C2OC(COP(=O)(O)OCC3OC(n4cc(F)c(NCCCCCCCCCCCCCCCCCC)nc4=O)CC3O)C(O)C2O)c(=O)n1 (stereo not given) : > 100 µM
O=C1CC(S(=O)(=O)O)C=C1Nc1cccc(Cl)c1 (stereo not given) : > 100 µM
COc1cc(C2C(Cl)C(=O)N2NC(=O)c2ccc(N)cc2)ccc1O (stereo not given) : 32.1 µM
COc1ccc(-c2cc(-c3cc4cc(Br)ccc4nc3Cl)c(C#N)c(N)n2)cc1 : > 12.5 µM

Asked: Please supply the value of reported TGI for the item `CCc1ccc(NC(=O)COC(=O)c2cc([N+](=O)[O-])ccc2Sc2nnnn2C)cc1`
Given back: 22 µM

Asked: Please report the measured TGI for `CC(=O)Oc1c2oc3ccc(Cl)cc3c(=O)c2c(O)c2ccsc12`
Given back: > 100 µM

Asked: Indicate its recorded TGI; the compound in question is `O=C1C(=O)c2ccccc2C(O)=C1CCCc1ccc(Oc2ccccc2)cc1`
Given back: 15.3 µM

Asked: Dear colleague, please send me the reported TGI for `N#Cc1ccccc1-c1nc2c3c(c(N)ccc3n1)C(=O)c1ccccc1-2` when you can.
Given back: > 100 µM

Asked: Please give the documented TGI of COc1ccccc1NC(=O)CC(=O)N1N=C(C)C(N=Nc2ccc(C(=O)O)cc2)C1=O (stereo not given)
Given back: > 100 µM

Asked: Read the entry `CN(C(=O)c1ccco1)C(=S)N1CCN(c2ccccc2)CC1` and write its reported TGI.
Given back: > 100 µM

---

System: HCT-15 colon
PROCEDURE SUMMARY: NCI tumour cell line growth inhibition, 48 h
This listing pairs molecules with measured TGI.

Asked: Query TGI for COc1ccc(C(=O)C(c2ccc(OC)cc2)C2(O)C(=O)Nc3c2ccc(Cl)c3C)cc1 (configuration not stated)
Given back: > 100 µM

Asked: Respond only with TGI recorded for `COc1cccc(-n2ncc3c(N/N=C/c4ccncc4)ncnc32)c1`
Given back: > 25 µM

Asked: State its TGI: `O=C1/C(=N\S(=O)(=O)c2ccccc2)C([n+]2ccc(Cc3ccccc3)cc2)=C([O-])c2ccccc21`
Given back: 3.36 µM

Asked: Complete the entry with TGI for `CCNC(=O)c1cc(/C=C/c2ccc([N+](=O)[O-])o2)nc2ccccc12`
Given back: > 100 µM

Asked: Dear colleague, please send me the reported TGI for `CS[C@]12C(=O)C[C@@]3(C)[C@@H](CC[C@]3(O)C(=O)CO)[C@@H]1CCC1=CC(=O)CC[C@@]12C` when you can.
Given back: > 100 µM

---

System: TK-10 renal
PROCEDURE SUMMARY: NCI tumour cell line growth inhibition, 48 h
# maps each entry to its GI50

C[CH2][Sn]([CH2]C)([O]C(=O)C(OC(C)=O)c1ccccc1)[O]C(=O)C(OC(C)=O)c1ccccc1 (configuration not stated) : 18.8 µM
COc1ccc(/C=C\c2cc(OC)c(OC)c(OC)c2)cc1OC : 23.5 µM
Nc1nc(Nc2ccc(C3CCC(N4CCOCC4)CC3)cc2)nn1-c1ccccn1 (configuration not stated) : > 21.5 µM
Nc1[nH]nc2nc(-c3cccs3)cc(C(F)(F)F)c12 : > 19.2 µM
COc1ccc(/C=C2\CCCC3=C2NC(N)=NC3c2ccc(OC)c(OC)c2)cc1OC (configuration not stated) : 4.68 µM
C/C=C(\C)C(=O)O[C@H]1C=CC(=O)O[C@@H]1CC[C@H](O)[C@H](C)O : 50.6 µM

Switching to the query record.
Asked: Recall the reported GI50 of `O=C(Nc1ccc(Cl)cc1)Nc1ccc(Nc2nncc3ccccc23)cc1` on TK-10 renal and write it down.
Given back: 5.03 µM

---

Test system: M14 melanoma
PROCEDURE SUMMARY: NCI tumour cell line growth inhibition, 48 h; in the data active means GI50 below about 0.43 µM; inactive means the rest
Outcome (select one): Yes = active, No = inactive

COc1ccc(C(=O)c2cc3c(N)c(C(=O)Nc4cccc5ccccc45)sc3nc2C)cc1 : Yes
COc1ccc(OC)c(-c2c(C#N)c(N)nc(N3CCOCC3)c2C#N)c1 : No
COc1ccc(/C=C2\CCCC3=C2NC(N)=NC3c2ccc(OC)c(OC)c2)cc1OC (stereo not given) : No
Cc1ccc(CNc2c3ccccc3nc3cc(NC(=O)CCN4CCCC4)ccc23)cc1 : No

Asked: Dear colleague, could you share the recorded outcome for `COc1ccc(/C=C\c2cc(OC)c(OC)c(OC)c2)cc1OC` when you have a moment?
Given back: Yes

---

Test system: OVCAR-4 ovarian
PROCEDURE SUMMARY: NCI tumour cell line growth inhibition, 48 h
Quick reference for TGI among some compounds

Worked cases, answers included:
COc1cc(/C=C2/C[C@H]3[C@@H]4CC=C5C[C@@H](OC(C)=O)CC[C@]5(C)[C@H]4CC[C@]3(C)NC2=O)cc(OC)c1OC : 62.3 µM
COC(=O)c1cc2ccc(OC(C)=O)c(OC(C)=O)c2cn1 : 30.6 µM
COC(=O)c1c(OC(C)=O)ccc2c1c1c(n2C)C(=O)c2ccccc2C1=O : > 100 µM
O=C1CC(S(=O)(=O)O)C=C1Nc1cccc(Cl)c1 (centres undefined) : > 100 µM
CN(/N=C/c1cccc2cccnc12)c1ccccc1 : > 100 µM

Asked: Recall and state the measured TGI for `O=C(NC[C@H](O)CO)c1ccncc1Nc1ccc(I)cc1F` .
Given back: > 100 µM

Asked: Specify reported TGI for the compound shown: `O=C(Nc1ccc(Cl)c(Cl)c1)O/N=C\c1c(Cl)ccc([N+](=O)[O-])c1Cl`
Given back: 3.14 µM

Asked: Assign TGI to the following record: `COc1cccc(-n2ncc3c(N/N=C/c4ccncc4)ncnc32)c1`
Given back: > 25 µM

Asked: Identify measured TGI associated with `CN1CC[C@@H](c2c(O)cc(O)c3c(=O)cc(-c4ccccc4Cl)oc23)[C@@H]1CO`
Given back: > 9.29 µM

---

TGI listing for selected molecules.
Tested on: MOLT-4 leukemia
PROCEDURE SUMMARY: NCI tumour cell line growth inhibition, 48 h
Form entry: value (µM) — number only.

COc1cc(C(=O)NC2CCN(C)CC2)c(F)cc1Nc1ncc2c(n1)N(C1CCCC1)CC(F)(F)C(=O)N2C : 2.53

Attention now shifts to the item below.
Asked: Answer with reported TGI of `C[C@H]1C[C@H]2[C@@H]3C(C)(C)O[C@]4(O)C(=O)[C@]5(O)[C@@H](C)CC[C@H]1[C@]25C(=O)[C@]34C`
Given back: 80.7

---

System: MDA-N
PROCEDURE SUMMARY: NCI tumour cell line growth inhibition, 48 h
Entries and their measured TGI follow.

C#CCSC(C=C=C)P(=O)(OC(C)C)OC(C)C (centres undefined) : > 100 µM
COc1ccccc1NC(=O)CC(=O)N1N=C(C)C(N=Nc2ccc(C(=O)O)cc2)C1=O (centres undefined) : > 100 µM
CCOc1cc(C2CC(c3ccc(NS(=O)(=O)c4cc([N+](=O)[O-])ccc4C)cc3)=NN2c2ccc([N+](=O)[O-])cc2[N+](=O)[O-])ccc1O (centres undefined) : 39.5 µM
COc1ccc(C)cc1Nc1nnc(-c2ccccc2N)s1 : > 100 µM
CCOC(=O)c1cc2c3c(c(C(C)=O)c(O)c2[nH]1)N(CC(C)CC)CC3 (centres undefined) : > 100 µM
O=c1[nH]nc(-c2ccccc2)n1/N=C/c1cccnc1 : > 100 µM

Asked: Determine from records and report TGI for C[CH2][Sn]([CH2]C)([O]C(=O)C(OC(C)=O)c1ccccc1)[O]C(=O)C(OC(C)=O)c1ccccc1 (centres undefined)
Given back: > 100 µM

Asked: Identify TGI associated with the compound `CC(=O)Oc1c2oc3ccc(Cl)cc3c(=O)c2c(O)c2ccsc12`
Given back: > 100 µM

Asked: Annotate the compound `COc1cc(/C=C2\Sc3scc(-c4cccc([N+](=O)[O-])c4)[n+]3C2=O)cc(OC)c1OC` with its measured TGI.
Given back: 27.1 µM

---

System: MCF7 breast
PROCEDURE SUMMARY: NCI tumour cell line growth inhibition, 48 h
Documented TGI across a set of compounds

Cc1ccc(S(=O)(=O)Nc2cccc3[nH]c(C(F)(F)F)nc23)cc1 : > 54.5 µM
C1CN(SSN2CCOCC2)CCO1 : 64.4 µM
Nc1ccccc1CC(O)C(=O)O (stereo unspecified) : > 100 µM
CCOc1cc(C2CC(c3ccc(NS(=O)(=O)c4cc([N+](=O)[O-])ccc4C)cc3)=NN2c2ccc([N+](=O)[O-])cc2[N+](=O)[O-])ccc1O (stereo unspecified) : 42.1 µM
c1ccc2c(c1)CCc1c-2n(CCN2CCOCC2)c2ccccc12 : > 100 µM
CCCCCC(C)SC1(C(=O)OC)CC(OC(C)=O)C(NC(C)=O)C([C@H](OC(C)=O)[C@@H](COC(C)=O)OC(C)=O)O1 (stereo partly specified) : > 100 µM
O=C(O)c1nc(-c2ccccc2)[nH]c1C(=O)O : 15.7 µM
Nc1ncnc2c1nnn2C1CCC(CP(=O)(O)O)C1 (stereo unspecified) : > 100 µM
COc1ccc2c(c1)c(CC(=O)O)c(C)n2C(=O)c1ccc(Cl)cc1 : > 100 µM
C[CH2][Sn]([CH2]C)([O]C(=O)C(OC(C)=O)c1ccccc1)[O]C(=O)C(OC(C)=O)c1ccccc1 (stereo unspecified) : 27.8 µM

From here, focus on the item given below.
Asked: Read off the recorded TGI for CC1(C)C2C=CC1(C)C1(CC2)OCCO1 (stereo unspecified)
Given back: > 100 µM
